EXPERIMENTAL_TARGET: Tyrosine-protein kinase Lyn (Homo sapiens) (UniProt P07948);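 also: kinase tested as its LYN B splice variant, values given as mean percent inhibition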
Sequence (P07948 2-512 limits assumed): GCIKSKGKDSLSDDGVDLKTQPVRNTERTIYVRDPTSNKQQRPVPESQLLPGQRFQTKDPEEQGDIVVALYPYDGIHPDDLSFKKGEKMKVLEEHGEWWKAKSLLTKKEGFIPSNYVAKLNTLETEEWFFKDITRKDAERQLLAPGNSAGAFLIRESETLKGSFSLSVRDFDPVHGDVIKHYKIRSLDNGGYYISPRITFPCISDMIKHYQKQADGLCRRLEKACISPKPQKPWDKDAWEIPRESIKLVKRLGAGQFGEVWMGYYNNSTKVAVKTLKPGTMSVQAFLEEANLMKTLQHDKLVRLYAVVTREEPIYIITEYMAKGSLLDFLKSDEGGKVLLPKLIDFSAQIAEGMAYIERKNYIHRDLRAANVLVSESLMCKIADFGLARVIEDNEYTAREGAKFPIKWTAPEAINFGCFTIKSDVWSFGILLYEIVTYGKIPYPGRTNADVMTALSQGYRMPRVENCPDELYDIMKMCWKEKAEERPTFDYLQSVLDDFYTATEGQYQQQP
SETUP_CONDITIONS: at 1 µM
Description: GSK_PKIS: LYN B (splice variant) mean inhibition at 1 uM [Nanosyn]
QUANTITY: inhibition

# example entries with known answers
Nc1ncnc2occ(-c3ccc(NC(=O)Nc4cccc(C(F)(F)F)c4)cc3)c12 : 67.8%
CC1=C(C(=O)Nc2ccc3[nH]ncc3c2)C(c2ccc3ccccc3c2)CC(=O)N1 (stereo unspecified) : 26.2%
CS(=O)(=O)CCNCc1ccc(-c2ccc3ncnc(Nc4ccc(OCc5ccccc5)c(Cl)c4)c3c2)o1 : 5.08%
CC1=C(C(=O)Nc2ccc3[nH]ncc3c2)C(c2ccc(F)cc2)NC(=O)N1 (stereo unspecified) : 1.73%
O=C1NC(=O)C(c2ccccc2Cl)=C1Nc1cccc(O)c1 : 2.65%

Now turn to the next compound.
Exercise: Sample "CC(=O)Nc1cccc(C#Cc2cncnc2Nc2ccc(OCc3cccc(F)c3)c(Cl)c2)n1" — what was its inhibition?
Key: 3.79%

* * *

Kindly supply the reported inhibition values for the records listed here.
EXPERIMENTAL_TARGET: cAMP-dependent protein kinase catalytic subunit PRKX (Homo sapiens);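 also: values are mean percent inhibition of PRKX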
SETUP_CONDITIONS: at 0.1 µM
Give bare numbers, in %.

[O-][S+]1CCN(Cc2ccc(-c3ccc4ncnc(Nc5ccc(OCc6ccccc6)c(F)c5)c4c3)o2)CC1 : 0.09
Cc1cc(O)cc(C)c1/C=C/c1cncc(-c2nn[nH]n2)c1 : 1.59
CCN1CCC(CC(=O)Nc2n[nH]c3nc(-c4cccs4)c(Br)cc23)CC1 : -0.98

Now turn to the next compound.
Exercise: Sample CC1=C(C(=O)Nc2ccc3[nH]ncc3c2)C(c2ccc(F)cc2)NC(=O)N1 (centres undefined) — what was its inhibition?
Key: 12.7

* * *

Kindly supply the reported inhibition values for the records listed here.
EXPERIMENTAL_TARGET: Serine/threonine-protein kinase BRSK2 (Homo sapiens) (UniProt Q8IWQ3);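 also: values are mean inhibition of BRSK2 from the GSK PKIS screening dataset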
Sequence (Q8IWQ3 whole entry): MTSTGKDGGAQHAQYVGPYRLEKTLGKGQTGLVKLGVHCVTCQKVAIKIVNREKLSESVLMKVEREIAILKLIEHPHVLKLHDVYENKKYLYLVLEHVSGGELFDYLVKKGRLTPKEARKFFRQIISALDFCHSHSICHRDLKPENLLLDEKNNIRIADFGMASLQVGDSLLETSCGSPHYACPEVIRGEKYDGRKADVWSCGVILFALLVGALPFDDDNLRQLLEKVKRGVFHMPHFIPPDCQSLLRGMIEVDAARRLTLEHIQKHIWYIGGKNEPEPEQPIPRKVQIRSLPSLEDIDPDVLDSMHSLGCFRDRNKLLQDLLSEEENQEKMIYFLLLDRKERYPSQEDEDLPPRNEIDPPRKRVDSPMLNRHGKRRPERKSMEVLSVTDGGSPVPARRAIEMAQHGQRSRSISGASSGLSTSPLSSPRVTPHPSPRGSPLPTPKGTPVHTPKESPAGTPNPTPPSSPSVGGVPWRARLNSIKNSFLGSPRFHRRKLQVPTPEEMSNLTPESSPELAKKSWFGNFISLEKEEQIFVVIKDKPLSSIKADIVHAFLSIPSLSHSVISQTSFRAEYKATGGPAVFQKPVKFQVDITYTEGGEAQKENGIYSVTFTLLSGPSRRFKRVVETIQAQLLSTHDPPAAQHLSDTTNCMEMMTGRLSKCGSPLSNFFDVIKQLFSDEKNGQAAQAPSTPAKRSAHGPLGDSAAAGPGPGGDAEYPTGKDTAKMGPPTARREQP
SETUP_CONDITIONS: at 0.1 µM
Give bare numbers, in %.

CCCN1CCC=C(c2ccc(Nc3nc(Nc4ccccc4C(N)=O)c4cc[nH]c4n3)c(C)c2)C1 : 2.36
Fc1cccc(COc2ccc(Nc3ncnc4sc(-c5cccs5)cc34)cc2Cl)c1 : 0.22
CS(=O)(=O)CCNCc1ccc(-c2ccc3ncnc(Nc4ccc(OCc5ccccc5)c(Cl)c4)c3c2)o1 : 0.27
CCn1c(-c2nonc2N)nc2cnc(Oc3cccc(NC(=O)c4ccc(OCCN5CCOCC5)cc4)c3)cc21 : 1.64
Fc1cccc(COc2ccc(Nc3ncnc4cc(-c5ccc[nH]5)sc34)cc2Cl)c1 : 0.79

Exercise: Sample "CCn1c(-c2nonc2N)nc2cncc(C(=O)N3CCNCC3)c21" — what was its inhibition?
Key: -0.27

* * *

EXPERIMENTAL_TARGET: Leucine-rich repeat serine/threonine-protein kinase 2 (Homo sapiens) (UniProt Q5S007);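 also: mean percent inhibition of LRRK2 measured in the GSK PKIS kinase inhibitor set screen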
Sequence (Q5S007 whole entry): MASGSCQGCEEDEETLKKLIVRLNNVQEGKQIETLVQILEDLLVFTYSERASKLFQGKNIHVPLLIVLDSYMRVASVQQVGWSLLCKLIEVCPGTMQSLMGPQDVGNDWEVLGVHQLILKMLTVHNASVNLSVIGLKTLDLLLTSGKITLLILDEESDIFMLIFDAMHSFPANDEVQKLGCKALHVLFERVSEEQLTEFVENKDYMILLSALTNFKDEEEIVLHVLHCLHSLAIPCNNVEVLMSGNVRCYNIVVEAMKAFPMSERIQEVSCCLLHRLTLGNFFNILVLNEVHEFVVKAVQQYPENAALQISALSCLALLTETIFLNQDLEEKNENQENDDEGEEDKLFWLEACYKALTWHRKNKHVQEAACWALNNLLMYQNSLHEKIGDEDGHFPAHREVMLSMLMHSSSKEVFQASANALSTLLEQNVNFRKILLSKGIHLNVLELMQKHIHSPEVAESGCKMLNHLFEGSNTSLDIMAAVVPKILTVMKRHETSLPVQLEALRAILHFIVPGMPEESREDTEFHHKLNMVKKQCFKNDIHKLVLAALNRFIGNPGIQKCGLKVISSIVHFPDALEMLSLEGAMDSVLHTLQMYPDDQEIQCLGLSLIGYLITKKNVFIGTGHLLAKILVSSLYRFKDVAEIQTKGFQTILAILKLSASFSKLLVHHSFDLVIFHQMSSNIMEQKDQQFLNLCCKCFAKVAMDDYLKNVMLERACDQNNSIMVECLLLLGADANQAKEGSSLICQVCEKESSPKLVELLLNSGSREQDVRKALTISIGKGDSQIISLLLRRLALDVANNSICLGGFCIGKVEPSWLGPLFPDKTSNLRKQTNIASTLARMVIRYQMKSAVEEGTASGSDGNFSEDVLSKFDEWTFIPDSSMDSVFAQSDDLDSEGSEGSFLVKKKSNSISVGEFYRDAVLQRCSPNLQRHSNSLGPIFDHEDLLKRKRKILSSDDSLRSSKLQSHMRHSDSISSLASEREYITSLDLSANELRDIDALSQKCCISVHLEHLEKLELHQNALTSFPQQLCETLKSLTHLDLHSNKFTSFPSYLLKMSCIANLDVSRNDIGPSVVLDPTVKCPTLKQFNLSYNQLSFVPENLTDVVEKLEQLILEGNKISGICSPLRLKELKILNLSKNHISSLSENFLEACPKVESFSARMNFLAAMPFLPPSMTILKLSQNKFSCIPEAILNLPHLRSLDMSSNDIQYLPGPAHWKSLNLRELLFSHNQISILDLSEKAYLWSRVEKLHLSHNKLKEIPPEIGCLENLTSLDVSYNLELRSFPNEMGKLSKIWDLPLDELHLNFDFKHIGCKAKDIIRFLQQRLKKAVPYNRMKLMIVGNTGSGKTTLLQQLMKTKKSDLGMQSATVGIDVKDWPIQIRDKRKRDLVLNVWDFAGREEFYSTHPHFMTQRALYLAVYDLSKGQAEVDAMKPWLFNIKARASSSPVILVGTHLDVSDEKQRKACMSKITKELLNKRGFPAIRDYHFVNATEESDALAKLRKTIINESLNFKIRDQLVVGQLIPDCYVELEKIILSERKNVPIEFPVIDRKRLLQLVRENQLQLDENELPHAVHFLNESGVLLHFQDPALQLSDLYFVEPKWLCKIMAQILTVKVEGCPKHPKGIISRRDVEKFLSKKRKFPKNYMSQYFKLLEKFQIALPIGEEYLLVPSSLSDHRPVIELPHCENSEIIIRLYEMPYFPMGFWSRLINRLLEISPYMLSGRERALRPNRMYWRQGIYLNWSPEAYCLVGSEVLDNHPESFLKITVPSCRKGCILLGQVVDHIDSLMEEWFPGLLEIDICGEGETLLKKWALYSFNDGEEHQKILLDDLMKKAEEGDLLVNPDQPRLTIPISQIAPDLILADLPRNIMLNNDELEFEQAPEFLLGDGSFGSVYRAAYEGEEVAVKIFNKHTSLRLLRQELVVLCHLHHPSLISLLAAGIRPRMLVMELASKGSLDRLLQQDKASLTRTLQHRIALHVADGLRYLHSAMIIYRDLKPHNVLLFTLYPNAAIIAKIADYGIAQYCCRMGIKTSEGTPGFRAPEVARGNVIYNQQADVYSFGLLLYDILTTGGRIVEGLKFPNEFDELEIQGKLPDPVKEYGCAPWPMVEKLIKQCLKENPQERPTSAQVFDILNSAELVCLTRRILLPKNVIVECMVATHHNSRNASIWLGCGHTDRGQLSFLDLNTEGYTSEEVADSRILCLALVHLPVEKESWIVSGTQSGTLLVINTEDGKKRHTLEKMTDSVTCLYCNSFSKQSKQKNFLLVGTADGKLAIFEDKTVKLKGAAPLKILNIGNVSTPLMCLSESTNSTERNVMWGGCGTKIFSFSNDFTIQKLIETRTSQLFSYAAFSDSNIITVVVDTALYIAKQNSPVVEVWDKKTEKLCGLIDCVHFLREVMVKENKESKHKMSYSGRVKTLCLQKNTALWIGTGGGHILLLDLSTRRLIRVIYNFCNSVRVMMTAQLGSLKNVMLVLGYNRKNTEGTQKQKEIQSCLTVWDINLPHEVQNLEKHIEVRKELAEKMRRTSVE
SETUP_CONDITIONS: at 1 µM
Quick rule: inhibition of at least 10% means y, below that means n.

COc1cc2ncn(-c3cc(O[C@@H](C)c4ccccc4Cl)c(C(N)=O)s3)c2cc1OC : y
CCCN1CCC(Oc2cc(Nc3nc(Nc4cccc(F)c4C(N)=O)c4cc[nH]c4n3)c(OC)cc2Cl)CC1 : y
Fc1cccc(COc2ccc(Nc3ncnc4cc(-c5ccc[nH]5)sc34)cc2Cl)c1 : n
CNC(=O)c1cncc(/C=C/c2c(Cl)cccc2Cl)c1 : n
CCc1cccc(NC(=O)Nc2ccc(Oc3ccc4nc(NC(=O)OC)[nH]c4c3)cc2)c1 : n

Now examine the next entry.
Exercise: Can "Nc1ncnc2occ(-c3ccc(NC(=O)Nc4cccc(C(F)(F)F)c4)cc3)c12" be said to have inhibition at or above 10%?
Key: y
